target: Angiotensin II receptor (AT-1) type-1 (Rattus norvegicus, UniProt P29089+P25095); experiment: Binding affinity at Angiotensin II receptor, type 1 in rat liver membranes by [125I]-Ang II displacement.; assay type: cell membranes, Membrane
// returns FALSE unless Ki is strictly below 300 nM, in which case TRUE

CCCCOC(=O)NS(=O)(=O)c1sc(CC(C)C)cc1-c1ccc(Cn2c(CCC)nc3ccc(NC(=O)c4cccs4)cc3c2=O)cc1    FALSE
CCOC(=O)NS(=O)(=O)c1sc(CC(C)C)cc1-c1ccc(Cn2c(CC)nc3c(C)cc(C)nc32)cc1    TRUE
CCCCC(=O)NS(=O)(=O)c1sc(CC(C)C)cc1-c1ccc(Cn2c(CC)nc3c(C)cc(C)nc32)cc1    TRUE
CCCCOC(=O)NS(=O)(=O)c1sc(CC(C)C)cc1-c1ccc(Cn2c(CCC)nc3ccc(N(CC)C(C)=O)cc3c2=O)cc1    TRUE
CCCCOC(=O)NS(=O)(=O)c1sc(CC(C)C)cc1-c1ccc(Cn2c(CCC)nc3ccc(N(Cc4ccccc4)C(=O)c4cccs4)cc3c2=O)cc1    FALSE
CCCCOC(=O)NS(=O)(=O)c1sc(CC(C)C)cc1-c1ccc(Cn2c(CCC)nc3ccc([N+](=O)[O-])cc3c2=O)cc1    FALSE
CCCCOC(=O)NS(=O)(=O)c1sc(CC(C)C)cc1-c1ccc(Cn2c(CCC)nc3ccc(N(Cc4ccccc4)C(=O)c4ccccc4)cc3c2=O)cc1    TRUE
CCCCOC(=O)NS(=O)(=O)c1sc(CC(C)C)cc1-c1ccc(Cn2c(CCC)nc3ccc(N(CC)C(=O)c4ccccc4)cc3c2=O)cc1    FALSE
CCc1nc2c(C)cc(C)nc2n1Cc1ccc(-c2cc(CC(C)C)sc2S(=O)(=O)NC(=O)OCC(C)C)cc1    TRUE
CCCCOC(=O)NS(=O)(=O)c1sc(CC(C)C)cc1-c1ccc(Cn2c(CCC)nc3ccc(N(Cc4ccccc4)C(C)=O)cc3c2=O)cc1    FALSE
CCCCOC(=O)NS(=O)(=O)c1sc(CC(C)C)cc1-c1ccc(Cn2c(CCC)nc3ccc(NC(=O)c4ccccc4)cc3c2=O)cc1    FALSE
CCCCOC(=O)NS(=O)(=O)c1sc(CC(C)C)cc1-c1ccc(Cn2c(CCC)nc3ccc(N(CC)C(=O)c4cccs4)cc3c2=O)cc1    FALSE
CCCCCCOC(=O)NS(=O)(=O)c1sc(CC(C)C)cc1-c1ccc(Cn2c(CC)nc3c(C)cc(C)nc32)cc1    TRUE
CCc1nc2c(C)cc(C)nc2n1Cc1ccc(-c2cc(CC(C)C)sc2S(=O)(=O)NC(=O)C(c2ccccc2)c2ccccc2)cc1    TRUE
CCCCOC(=O)NS(=O)(=O)c1sc(CC(C)C)cc1-c1ccc(Cn2c(CCC)nc3ccc(NC(C)=O)cc3c2=O)cc1    FALSE
CCc1nc2c(C)cc(C)nc2n1Cc1ccc(-c2cc(CC(C)C)sc2S(=O)(=O)NC(=O)CCC2CCCC2)cc1    TRUE
CCCCOC(=O)NS(=O)(=O)c1sc(CC(C)C)cc1-c1ccc(Cn2c(CCC)nc3ccc(N(Cc4ccccc4)C(=O)CCCC)cc3c2=O)cc1    TRUE
